Entries and their EC50 values follow.
Molecular target: T1, cynomolgus OX40L expressed on CHO cells (cynomolgus monkey, UniProt P23510 1-183 (human entry))
T1 construct: also called cynoOX40L; CHO-cynoOX40L
T1 chain: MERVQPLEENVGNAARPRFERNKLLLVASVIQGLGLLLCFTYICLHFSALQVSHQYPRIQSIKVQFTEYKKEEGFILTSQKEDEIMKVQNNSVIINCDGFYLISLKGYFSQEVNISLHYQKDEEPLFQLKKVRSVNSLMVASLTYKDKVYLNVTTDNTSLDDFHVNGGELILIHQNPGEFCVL
Assay: FACS binding to CHO cells, anti-c-myc detection
Description: Transfection of CHO K1 with the respective expression plasmid DNA and selection of clones with high expression levels was performed as described in Example 1. Binding of the Nanobodies to the cell surface expressed OX40L was assessed by FACS analysis of cells as described below. After washing bound Nanobodies were detected in FACSArray™ using mouse anti-c-myc and PE conjugated goat anti-mouse IgG.

>  <binder>
OX40L15B07 (VHH, monovalent Nanobody from E. coli; not shown: C-terminal c-myc and His6 tag) VHH: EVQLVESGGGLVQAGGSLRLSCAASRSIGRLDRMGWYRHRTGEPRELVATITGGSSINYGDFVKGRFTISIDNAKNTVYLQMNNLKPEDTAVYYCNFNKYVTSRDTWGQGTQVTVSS

>  <EC50, nM>
3.23

$$$$
>  <binder>
OX40L18E09 (VHH, monovalent Nanobody from E. coli; not shown: C-terminal c-myc and His6 tag) VHH: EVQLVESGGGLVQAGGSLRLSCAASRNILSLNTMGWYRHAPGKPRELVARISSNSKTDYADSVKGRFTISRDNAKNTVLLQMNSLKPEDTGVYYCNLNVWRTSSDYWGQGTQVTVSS

>  <EC50, nM>
3.8

$$$$
>  <binder>
OX40L19D08 (VHH, monovalent Nanobody from E. coli; not shown: C-terminal c-myc and His6 tag) VHH: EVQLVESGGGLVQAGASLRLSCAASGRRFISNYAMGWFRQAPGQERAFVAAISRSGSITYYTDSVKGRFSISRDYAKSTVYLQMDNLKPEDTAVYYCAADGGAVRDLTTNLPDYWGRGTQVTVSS

>  <EC50, nM>
3.4

$$$$
